# Target of assay: T1, In house human CD8A-Fc (human, UniProt P01732 22-182, limits assumed)
# T1 construct: Captured on goat anti-human Fc on a ProteOn GLC chip; also called hCD8A-Fc; recombinant human CD8 alpha; not shown: linker with flag (and polyhistidine) tag and Fc of human IgG1
# T1 sequence (P01732 22-182 limits assumed): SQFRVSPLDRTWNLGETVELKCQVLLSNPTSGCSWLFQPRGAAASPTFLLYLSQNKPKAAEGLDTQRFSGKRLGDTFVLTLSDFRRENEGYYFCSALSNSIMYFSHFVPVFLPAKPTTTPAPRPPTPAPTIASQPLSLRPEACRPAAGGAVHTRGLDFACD
# Protocol text: SPR (ProteOn), captured hCD8A-Fc
# Method: Purified anti-CD8A FN3 domains were subjected to off-rate analysis using a Proteon surface plasmon resonance instrument in order to pick clones with the slowest off-rates for further characterization. The immobilized GAH-Fc IgG densities averaged about 6000 Response Units (Ru) with less than 1% variation among different channels. […] The dissociation phase was monitored for 15 minutes at a flow rate of 100 μl/min using PBST as running buffer. […]

[
  {
    "Binder": "P282FR9P1361_F3 (designed binder, FN3 domain) LPAPKNLVVSRVTEDSARLSWTAPDAAFDSFDIWYAEYGYPGEAIVLTVPGSERSYDLTGLKPGTEYDVAISGAKGGPRSYPLSAIFTT",
    "koff [s⁻¹]": 0.0107
  },
  {
    "Binder": "P282CR9P1358_F11 (designed binder, FN3 domain) LPAPKNLVVSRVTEDSARLSWTAPDAAFDSFLIAYPEWPIFEGEAIVLTVPGSERSYDLTGLKPGTEYFVVIYGVKGGEQSSPLSAIFTT",
    "koff [s⁻¹]": 0.00135
  },
  {
    "Binder": "P282AR9P1356_B9 (designed binder, FN3 domain) LPAPKNLVVSRVTEDSARLSWPEGDRPFFDSFLIQYQESEKVGEAIVLTVPGSERSYDLTGLKPGTEYTVSIYGVDVKWEGNRPVASNPLSAIFTT",
    "koff [s⁻¹]": 0.000295
  },
  {
    "Binder": "P282FR9P1361_F11 (designed binder, FN3 domain) LPAPKNLVVSRVTEDSARLSWTAPDAAFDSFGIWYREYGGSGEAIVLTVPGSERSYDLTGLKPGTEYDVAIWGVKGGVRSYPLSAIFTT",
    "koff [s⁻¹]": 0.00213
  }
]
